# System under test: T1, human IL-11 (AAH12506.1, Pro22-Leu199) (human, UniProt P20809 22-199)
# T1 construct: The range Pro22-Leu199 counts on AAH12506.1; The Octet runs say only 'human IL-11'; also called hIL-11
# T1 chain: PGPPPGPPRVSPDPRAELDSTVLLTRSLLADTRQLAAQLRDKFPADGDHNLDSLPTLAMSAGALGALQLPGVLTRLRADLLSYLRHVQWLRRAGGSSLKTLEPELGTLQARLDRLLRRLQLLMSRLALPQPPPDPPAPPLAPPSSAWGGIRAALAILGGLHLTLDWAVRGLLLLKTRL
# Experimental details: BLI (Octet), antibody captured, human IL-11 in solution
Readout kind: koff (s⁻¹)
Numeric answer only, unit s⁻¹ assumed.

In: Entry under review: hz18A10-VHm18 + hz18A10-VLm19 (antibody, V domains shown, Constant regions not restated for this antibody) VH: EVQLVQSGAEVKKPGASVKVSCKASGYTFTHYNMDWVRQAPGQGLEWMGTIYPGEGDTSYNQKFKGRVTMTRDTSTSTVYMELSSLRSEDTAVYYCARGDLYALDYWGQGTLVTVSS VL: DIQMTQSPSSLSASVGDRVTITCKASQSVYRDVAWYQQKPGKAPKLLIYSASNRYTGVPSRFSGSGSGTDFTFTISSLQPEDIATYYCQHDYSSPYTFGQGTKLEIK . Reported koff?
Out: 0.000354

In: So what does the record say about koff for hz18A10-VHm6 + hz18A10-VLm9 (antibody, V domains shown, Constant regions not restated for this antibody) VH: EVQLVQSGAEVKKPGASVKVSCKASGYTFNHYDMDWVRQAPGQGLEWMGTIYPGNGDTSYNQKFKGRVTMTRDTSTSTVYMELSSLRSEDTAVYYCARGDLYALDYWGQGTLVTVSS VL: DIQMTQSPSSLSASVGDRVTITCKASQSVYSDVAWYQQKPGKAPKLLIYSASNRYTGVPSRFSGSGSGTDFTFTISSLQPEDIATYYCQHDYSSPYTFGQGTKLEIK ?
Out: 7.17e-06

In: Returns the measured koff for the input binder. Input: hz18A10-VHm19 + hz18A10-VLm19 (antibody, human IgG1, kappa, V domains shown, named hz18A10m19; also called hz18A10m19) VH: EVQLVQSGAEVKKPGASVKVSCKASGYTFTHYNMDWVRQAPGQGLEWMGTIYPGNADTSYNQKFKGRVTMTRDTSTSTVYMELSSLRSEDTAVYYCARGDLYALDYWGQGTLVTVSS VL: DIQMTQSPSSLSASVGDRVTITCKASQSVYRDVAWYQQKPGKAPKLLIYSASNRYTGVPSRFSGSGSGTDFTFTISSLQPEDIATYYCQHDYSSPYTFGQGTKLEIKR
Out: 0.0001
